# TARGET OR SYSTEM: T1, CD52 human leukocyte antigen (human, UniProt P31358 25-36)
# T1 construct: whole, on cells; also called CD52 antigen
# T1 chain (looked up): GQNDTSQTSSPS
# ASSAY DETAILS: FACS on HUT-78 cells (CD52+), FITC anti-human IgG Fc, median fluorescence, 4-parameter fit; titre = 50% of maximum binding
READOUT: EC50 (µg/mL)
The answer is to be given in µg/mL; state only the numeric part.

Look up EC50 for this binder: DIVH4/DIVK4 (antibody, human IgG1, V domains shown, also called DIVHv4/DIVKv4) VH: EVQLLESGGGLVQPGGSLRLSCAGSGFTFTDFYMNWVRQAPGKGLEWVGFIRDKAKGYTTEYNPSVKGRFTISRDNAKNSLYLQMNSLRAEDTAVYYCAREGHTAAPFDYWGQGTLVTVSS VL: DIQMTQSPSSLSASVGDRVTITCKASQNIDKYLNWYQQKPGKAPKSLIYNTNNLQTGVPSRFSGSGSGTDFTLTISSLQPEDIATYYCLQHISRPRTFGTGTKLELK 8.54

What do you have for DIVH3/DIVK2 (antibody, human IgG1, V domains shown, also called DIVHv3/DIVKv2) VH: EVKLQESGGGLVQPGGSMRISCSGSGFTFTDFYMNWIRQPPGKGPEWIGFIRDKAKGYTTEYNPSVKGRFTISRDNTQNTLHLQANTLRAEDTAVYYCAREGHTAAPFDYWGQGTTVTVSS VL: DIQMTQSPSSLSASVGDRVTITCKASQNIDKYLNWYQQKPGKAPKLLIYNTNNLQTGVPSRFSGSGSGTDFTLTISSLQPEDIATYYCLQHISRPRTFGTGTKLELK ? 17.8
